target: SlitOBP1 (Spodoptera litura); assay: Fluorescence competitive binding assay with 1-NPN, recombinant SlitOBP1
value_type: Kd

compound="c1ccc(Nc2cccc3ccccc23)cc1 [1-NPN, N-phenyl-1-naphthylamine, reference compound]" value_type=Kd result="3.24 µM"

###

Target: SlitOBP1 Thr9 (threonine to alanine) (Spodoptera litura, UniProt A1Z1R1, T28A)
Sequence (A1Z1R1 20-164 T28A): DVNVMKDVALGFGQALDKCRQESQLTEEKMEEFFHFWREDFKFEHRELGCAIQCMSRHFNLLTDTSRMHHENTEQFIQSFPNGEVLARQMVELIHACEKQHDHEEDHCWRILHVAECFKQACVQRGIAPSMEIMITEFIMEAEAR
Experiment: Fluorescence binding assay with 1-NPN, mutant SlitOBP1 Thr9
value_type: Kd (µM)

molecule="c1ccc(Nc2cccc3ccccc23)cc1 [1-NPN, N-phenyl-1-naphthylamine, reference compound]" value_units=µM numeric_readout=4.21
